- Tested on: breast line MDA468
- Method: In vitro cell culture growth assay (MTS), MDA468
- Assay type: cell-based, human
- Assay Conditions: Homo sapiens, 72 h, MDA468 cells, three days after drug treatment
pIC50: −log10 of the molar value.
Response key: 1 means pIC50 >= 6; -1 means pIC50 < 6.

                                   molecule   system_under_test  class
0  COC(=O)N1CCC(n2ncc3c(N4CCOCC4)nc(-c4ccc(NC(=O)Nc5ccc(CO)cc5)cc4)nc32)CC1 [Compound 912]  breast line MDA468      1
1  CNC(=O)Nc1ccc(-c2nc(N3CCOCC3)c3cnn(C4CCN(Cc5cncc(Br)c5)CC4)c3n2)cc1 [Example 393]  breast line MDA468      1
2  CN1CCC(C(=O)Nc2ccc(-c3nc(N4CCOCC4)c4cn[nH]c4n3)cc2)CC1 [Compound 530]  breast line MDA468     -1
3  O=C(NCCF)Nc1ccc(-c2nc(N3CCOCC3)c3cnn(C4CCN(C(=O)c5cccnc5)CC4)c3n2)cc1 [Compound 548]  breast line MDA468      1

Data provenance: patent US20080234262A1
